Source listed as patent US20120232070A1.

Reported values of Emax for individual entries
target: hNurr1_RXRγFL (NURR1/RXRγ heterodimer) (Homo sapiens, UniProt P43354+P48443); experiment: Transactivation assay in Cos-7 cells, NURR-1-Gal4 / RXRγ, luciferase reporter; type: cell-based; settings: COS-7, read-out: hNurr1_RXRγFL Eff (%), efficacy in % relative to the reference XCT0135908 at 2·10^−5 M (=100%)
Sequence (P43354 328-598): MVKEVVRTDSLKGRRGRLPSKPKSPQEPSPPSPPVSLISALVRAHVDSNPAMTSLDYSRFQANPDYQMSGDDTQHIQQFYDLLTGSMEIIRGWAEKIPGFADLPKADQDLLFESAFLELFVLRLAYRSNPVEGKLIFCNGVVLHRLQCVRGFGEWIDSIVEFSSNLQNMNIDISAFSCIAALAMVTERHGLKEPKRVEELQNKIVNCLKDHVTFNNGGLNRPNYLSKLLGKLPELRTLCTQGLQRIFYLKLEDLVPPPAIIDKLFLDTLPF
Sequence (P48443 whole entry, the tested form may be a part): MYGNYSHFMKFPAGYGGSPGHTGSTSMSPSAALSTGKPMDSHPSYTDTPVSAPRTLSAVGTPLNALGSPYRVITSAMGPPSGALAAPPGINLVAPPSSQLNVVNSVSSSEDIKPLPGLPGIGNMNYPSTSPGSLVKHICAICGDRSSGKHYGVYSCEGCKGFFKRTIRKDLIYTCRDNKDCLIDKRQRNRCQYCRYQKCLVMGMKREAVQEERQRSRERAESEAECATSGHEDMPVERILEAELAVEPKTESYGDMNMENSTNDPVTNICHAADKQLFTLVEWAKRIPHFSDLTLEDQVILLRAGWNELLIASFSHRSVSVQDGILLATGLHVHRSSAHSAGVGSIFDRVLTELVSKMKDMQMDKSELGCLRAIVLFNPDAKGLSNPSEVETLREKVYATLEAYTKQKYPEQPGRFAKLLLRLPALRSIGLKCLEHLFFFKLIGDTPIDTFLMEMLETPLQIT
TEST READOUT: Emax (%)

>>> measured_result("COc1cccc(S(=O)(=O)n2c(Cc3ccc(C(=O)O)cc3)cc3cc(C(F)(F)F)ccc32)c1")
36
>>> measured_result("COC(=O)c1cc(Cc2cc3cc(C(F)(F)F)ccc3n2S(=O)(=O)c2cccc(C(C)(C)C)c2)cn1C")
58
>>> measured_result("CC(C)Oc1ccc(S(=O)(=O)n2c(Cc3ccc(C(=O)O)cc3)cc3cc(Cl)ccc32)cc1")
40
>>> measured_result("CN1CCOc2ccc(S(=O)(=O)n3c(Cc4ccc(F)c(C(=O)O)c4)cc4cc(C(F)(F)F)ccc43)cc21")
81
>>> measured_result("CC(C)(C)c1cccc(S(=O)(=O)n2c(Cc3ccc(C=C4SC(=S)NC4=O)cc3)cc3cc(C(F)(F)F)ccc32)c1")
30
>>> measured_result("O=C(O)c1ccc(Cc2cc3cc(C(F)(F)F)ccc3n2S(=O)(=O)c2cccc(OC(F)(F)F)c2)cc1")
21
>>> measured_result("O=C(O)c1ccc(Cc2cc3cc(Cl)ccc3n2S(=O)(=O)c2ccc3c(c2)OCCO3)s1")
38
>>> measured_result("CC(C)(C)c1cccc(S(=O)(=O)n2c(C(=O)c3ccc(C(=O)O)cc3)cc3cc(C(F)(F)F)ccc32)c1")
32
>>> measured_result("O=C(O)c1cncc(Cc2cc3cc(Cl)ccc3n2S(=O)(=O)c2ccc3c(c2)OCCO3)c1")
31
>>> measured_result("Cc1cccc(S(=O)(=O)n2c(Cc3ccc(C(=O)O)cc3)cc3cc(Cl)ccc32)c1")
40
>>> measured_result("Cc1cc(C(=O)O)ccc1Cc1cc2cc(C(F)(F)F)ccc2n1S(=O)(=O)c1cccc(C(C)(C)C)c1")
52
>>> measured_result("CC(C)(C)c1cccc(S(=O)(=O)n2c(Cc3ccc(C(=O)O)cc3)c(F)c3cc(C(F)(F)F)ccc32)c1")
80
>>> measured_result("O=C(O)c1ccc(Cc2cc3cc(C(F)(F)F)ccc3n2S(=O)(=O)c2ccsc2)cc1")
45
>>> measured_result("COc1ccc(S(=O)(=O)n2c(Cc3ccc(C(=O)O)cc3)cc3cc(C(F)(F)F)ccc32)cn1")
49
>>> measured_result("O=C(O)c1ccc(Cc2cc3cc(Cl)ccc3n2S(=O)(=O)c2ccc(-c3cccc(F)c3)cc2)cc1")
47
